Target: ERα (Homo sapiens, UniProt P03372)
Sequence (P03372 1-595): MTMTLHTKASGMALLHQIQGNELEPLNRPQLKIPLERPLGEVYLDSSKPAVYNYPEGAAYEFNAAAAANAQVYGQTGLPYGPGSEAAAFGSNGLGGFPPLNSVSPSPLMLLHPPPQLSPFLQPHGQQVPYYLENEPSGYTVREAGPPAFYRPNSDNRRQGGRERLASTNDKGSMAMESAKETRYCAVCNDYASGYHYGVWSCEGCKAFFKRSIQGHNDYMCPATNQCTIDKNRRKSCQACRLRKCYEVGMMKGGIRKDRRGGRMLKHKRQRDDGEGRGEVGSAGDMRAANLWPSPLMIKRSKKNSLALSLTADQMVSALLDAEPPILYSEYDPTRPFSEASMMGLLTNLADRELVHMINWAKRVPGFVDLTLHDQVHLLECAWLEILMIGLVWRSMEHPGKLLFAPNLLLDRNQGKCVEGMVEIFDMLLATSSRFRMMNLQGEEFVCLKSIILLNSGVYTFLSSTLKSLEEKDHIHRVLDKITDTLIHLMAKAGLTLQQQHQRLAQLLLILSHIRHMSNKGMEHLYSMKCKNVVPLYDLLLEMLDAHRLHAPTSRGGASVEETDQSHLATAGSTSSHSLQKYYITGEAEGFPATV
Assay: Degradation of ERα in T-47D cells (immunoblotting, 4 h)
Type: cell-based
Design: host or cells: T-47D
Details: 10nM compound
In plain terms, low Degradation rate (%) of ERα in T-47D cells, meaning strictly below 80%, gives MET, and everything else gives NOT MET.

C[C@@H]1Cc2c([nH]c3ccccc23)[C@@H](c2c(F)cc(N3CCC4(CC3)CC(N3CC[C@@H](N5CCC6(CC5)COc5c6ccc6c5CN(C5CCC(=O)NC5=O)C6=O)[C@@H](F)C3)C4)cc2F)N1CC(F)F (some centres unmarked) [D10] = MET
O=C1CCC(N2C(=O)c3cc4c(cc3C2=O)C2(CCN(C3CCN(c5ccc(C6c7ccc(O)cc7CCC6c6ccccc6)cc5)CC3)CC2)CO4)C(=O)N1 (centres unmarked) [A16] = MET
O=C1CCC(N2Cc3c(ccc4c3OCC43CCN(C(=O)CC4CCN(C(=O)C5CCN(c6ccc([C@@H]7c8ccc(O)cc8CC[C@@H]7c7ccccc7)cc6)CC5)CC4)CC3)C2=O)C(=O)N1 (some centres unmarked) [A123] = NOT MET

Ask: Report whether reported Degradation rate (%) of ERα in T-47D cells is lower than 80% (strictly) for C[C@@H]1Cc2c(ccc3[nH]ncc23)[C@@H](c2c(F)cc(N3CCN(C[C@H]4CC[C@H](C(=O)N5CCC6(CC5)COc5c6ccc6c5CN(C5CCC(=O)NC5=O)C6=O)CC4)CC3)cc2F)N1CC(F)F (some centres unmarked) [C12]
Reply: MET
